// provenance: patent US9556150B2

target: Bruton's Tyrosine Kinase (BTK), inactivated state (Homo sapiens (Human)); experiment: Bruton's Tyrosine Kinase (BTK) Inhibition TR-FRET (Time Resolved FRET) competition assay; conditions: TR-FRET competition with Kinase Tracer 178, BTK-Eu complex, 18-24 h at 14° C.
pIC50: −log10 of the molar value.
endpoint_name: pIC50

A. Cc1cc(Oc2cccc(C#N)c2)ccc1-n1ncc(C(=O)c2cc3cc(C(=O)N4CCOCC4)ccc3[nH]2)c1N
B. Cc1cc(Oc2ccccc2)ccc1-n1ncc(C(=O)c2cc3cc(C(=O)N4CCOCC4)ccc3[nH]2)c1N
C. Cc1cc(Oc2ccccc2)c(F)cc1-n1ncc(C(=O)c2cc3cc(C(=O)N4CCOCC4)ccc3[nH]2)c1N
D. Cc1cc(Oc2cccc(C#N)c2)ccc1-n1ncc(C(=O)c2nc3cc(C(=O)N4CCOCC4)ccc3[nH]2)c1N
E. Nc1c(C(=O)c2cc3cc(C(=O)N4CCOCC4)ccc3[nH]2)cnn1-c1ccc(Oc2cccc(F)c2F)nc1
Qu. Please rank everything listed above by pIC50, with the minimum value first. Form entry: ranked labels (order as requested).
Ans. E, C, D, A, B

A. Nc1c(C(=O)c2cc3cc(C(=O)N4CCOCC4)ccc3[nH]2)cnn1-c1ccc(Oc2ccccc2)cc1
B. COc1nc(Oc2cccc(F)c2F)ccc1-n1ncc(C(=O)c2cc3cc(C(=O)N4CCOCC4)ccc3[nH]2)c1N
Qu. Lab note: record which item had the higher pIC50, A or B . Indicate your choice by writing its label.
Ans. A

* * *

Molecular target: Bruton's Tyrosine Kinase (BTK), inactivated state (Homo sapiens (Human))
Assay: Bruton's Tyrosine Kinase (BTK) Inhibition TR-FRET (Time Resolved FRET) competition assay
Conditions: TR-FRET competition with Kinase Tracer 178, BTK-Eu complex, 18-24 h at 14° C.
Experimental: Bruton's Tyrosine Kinase (BTK) Inhibition TR-FRET (Time Resolved FRET) Assay This BTK competition assay measures compound potency (IC50) for the inactivated state of Bruton's Tyrosine Kinase using FRET (Förster/Fluorescence Resonance Energy Transfer) technology. […] After the incubation the plates were read on a BMG Pherastar Fluorescent plate reader (or equivalent) and used to measure the emission energy from the europium donor fluorophore (620 nm emission) and the FRET (665 nm emission). […]
endpoint_name: IC50 (nM)

molecule	IC50 [nM]
N#Cc1cccc(Oc2ccc(-n3ncc(C(=O)c4cc5cc(C(=O)NS(=O)(=O)C6CC6)ccc5[nH]4)c3N)c(Cl)c2)c1 [Example I-45]	1.7
N#Cc1cccc(Oc2ccc(-n3ncc(C(=O)c4cc5cc(Br)ccc5[nH]4)c3N)c(Cl)c2)c1 [Example I-33]	430

I. Cc1cc(Oc2cccc(C#N)c2)ccc1-n1ncc(C(=O)c2nc3cc(C(=O)O)ccc3[nH]2)c1N [Example I-42]
II. Cc1cc(OCc2ccc(Cl)cc2)ccc1-n1ncc(C(=O)c2cc3cc(C(=O)N4CCOCC4)ccc3[nH]2)c1N [Example I-27]
Qu. Lab note: record which item had the higher IC50, I or II . Indicate your choice by writing its label.
Ans. I

* * *

molecular target: Bruton's Tyrosine Kinase (BTK), inactivated state (Homo sapiens (Human), UniProt Q06187); test: Bruton's Tyrosine Kinase (BTK) Inhibition TR-FRET (Time Resolved FRET) competition assay; conditions: TR-FRET competition with Kinase Tracer 178, BTK-Eu complex, 18-24 h at 14° C.
Sequence (Q06187 whole entry): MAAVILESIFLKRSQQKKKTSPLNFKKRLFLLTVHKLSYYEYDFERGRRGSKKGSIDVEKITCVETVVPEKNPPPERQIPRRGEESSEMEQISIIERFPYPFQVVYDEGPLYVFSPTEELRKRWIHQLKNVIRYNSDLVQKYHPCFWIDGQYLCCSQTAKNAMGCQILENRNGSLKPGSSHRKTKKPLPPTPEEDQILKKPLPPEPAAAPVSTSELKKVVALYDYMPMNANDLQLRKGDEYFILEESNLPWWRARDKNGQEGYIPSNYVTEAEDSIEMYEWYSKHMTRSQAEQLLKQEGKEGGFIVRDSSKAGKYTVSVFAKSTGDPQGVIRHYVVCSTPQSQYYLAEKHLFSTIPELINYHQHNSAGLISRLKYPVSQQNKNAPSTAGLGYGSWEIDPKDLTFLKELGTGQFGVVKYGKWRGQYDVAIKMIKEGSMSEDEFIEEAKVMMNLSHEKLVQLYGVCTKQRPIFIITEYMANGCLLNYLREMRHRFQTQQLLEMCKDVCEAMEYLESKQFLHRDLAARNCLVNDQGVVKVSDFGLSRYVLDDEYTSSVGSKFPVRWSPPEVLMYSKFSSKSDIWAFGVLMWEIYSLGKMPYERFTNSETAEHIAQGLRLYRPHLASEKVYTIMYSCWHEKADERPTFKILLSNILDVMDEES
Structures can show the parent of a compound that is named as a salt.
endpoint_name: IC50 (nM)

Example entries and their recorded answers appear below.
compound	IC50 / nM
Nc1c(C(=O)c2cc3cc(C(=O)N4CCOCC4)ccc3[nH]2)cnn1-c1ccc(Oc2cccc(F)c2F)cc1O	4.3
Nc1c(C(=O)c2cc3cc(C(=O)N4CCOCC4)ccc3[nH]2)cnn1-c1ccc(Oc2ccccc2)cc1Cl	0.46
CN(C)C(=O)c1ccccc1Oc1ccc(-n2ncc(C(=O)c3cc4cc(C(=O)N5CCOCC5)ccc4[nH]3)c2N)c(Cl)c1	3.3

P. COCCNC(=O)c1ccc2[nH]c(C(=O)c3cnn(-c4ccc(Oc5cccc(C#N)c5)cc4C)c3N)nc2c1
Q. CN1CCN(C(=O)c2ccc3[nH]c(C(=O)c4cnn(-c5ccc(Oc6cccc(C#N)c6)cc5Cl)c4N)cc3c2)CC1 [Example I-44, hydrochloride salt]
Qu. Lab note: record which item had the higher IC50, P or Q . Indicate your choice by writing its label.
Ans. P
